Tested on: NCI-H1975
ASSAY: Antiproliferative activity against human NCI-H1975 cells incubated for 72 hrs by MTT assay
Assay type: functional, cell-based
MEASUREMENT CONTEXT: NCI-H1975, 72 h
pIC50: −log10 of the molar value.
MEASUREMENT LABEL: pIC50

Here's what some known entries look like.
> print(dat)
                            chemical.smiles  measurement.label  readout.number
1  CN1CCN(c2ccc(Nc3ncc4nc(Nc5ccccc5)n([C@H]5CCN(S(=O)(=O)C6CC6)C5)c4n3)cc2)CC1              pIC50            6.62
2  CN1CCN(c2ccc(Nc3ncc4nc(Nc5ccc(F)cc5)n([C@H]5CCCN(S(=O)(=O)C6CC6)C5)c4n3)cc2)CC1              pIC50            5.94
3  CN1CCN(c2ccc(Nc3ncc4nc(Nc5ccc(F)cc5)n(-c5cccc(NC(=O)CO)c5)c4n3)cc2)CC1              pIC50            6.24
4  CN1CCN(c2ccc(Nc3ncc4nc(Nc5ccc(F)cc5)n([C@H]5CCN(S(=O)(=O)C6CC6)C5)c4n3)cc2)CC1              pIC50            6.24

P: CN1CCN(c2ccc(Nc3ncc4nc(Nc5ccc(F)cc5)n([C@H]5CCCN(C(=O)CO)C5)c4n3)cc2)CC1
Q: CN1CCN(c2ccc(Nc3ncc4nc(Nc5ccccc5)n([C@@H]5CCN(S(=O)(=O)C6CC6)C5)c4n3)cc2)CC1
Which shows the larger pIC50 value: P or Q ? Please respond with the label that marks your chosen entry.
Q
(Q: 6.70, P: 6.12)
